Measured values drawn from patent US9637453B2 for this set.

# measuredOn: Full length human recombinant HDAC11 (Homo sapiens)
# Construct: Full length human recombinant HDAC6 and HDAC11 proteins were expressed in baculoviral system
# procedureText: In vitro histone deacetylase assay, enzymatic HDAC11 (electrophoretic mobility shift assay)
# testConditions: 10 nM HDAC11; 2 μM peptide substrate FAM-RHKK(tri-fluor-Ac)—NH2; 25° C.; 12 concentrations; read-out: HDAC11 Activity Range (IC50)
quantityName: IC50

> print(dat)
                                   compound                                measuredon    result
1  O=C(NO)c1ccc2c(c1)CC1(CC2)CCN(S(=O)(=O)C2CCCCC2)C1 (stereo not shown)  Full length human recombinant HDAC11 (Homo sapiens)  > 500 nM
2  COc1cccc(CN2CC[C@@]3(CCc4ccc(C(=O)NO)cc4C3)C2=O)c1  Full length human recombinant HDAC11 (Homo sapiens)  > 500 nM
3  Cc1ccc(CN2CC[C@]3(CCc4ccc(C(=O)NO)cc4C3)C2=O)cc1  Full length human recombinant HDAC11 (Homo sapiens)  > 500 nM

Continue with the next compound.
// lookup IC50 for O=C(NO)c1ccc2c(c1)C[C@]1(CC2)CCN(Cc2ccccc2Cl)C1=O
≤ 100 nM

---

# measuredOn: Full length human recombinant HDAC6 (Homo sapiens, UniProt Q9UBN7)
# Construct: Full length human recombinant HDAC6 and HDAC11 proteins were expressed in baculoviral system
# Sequence (Q9UBN7 whole entry): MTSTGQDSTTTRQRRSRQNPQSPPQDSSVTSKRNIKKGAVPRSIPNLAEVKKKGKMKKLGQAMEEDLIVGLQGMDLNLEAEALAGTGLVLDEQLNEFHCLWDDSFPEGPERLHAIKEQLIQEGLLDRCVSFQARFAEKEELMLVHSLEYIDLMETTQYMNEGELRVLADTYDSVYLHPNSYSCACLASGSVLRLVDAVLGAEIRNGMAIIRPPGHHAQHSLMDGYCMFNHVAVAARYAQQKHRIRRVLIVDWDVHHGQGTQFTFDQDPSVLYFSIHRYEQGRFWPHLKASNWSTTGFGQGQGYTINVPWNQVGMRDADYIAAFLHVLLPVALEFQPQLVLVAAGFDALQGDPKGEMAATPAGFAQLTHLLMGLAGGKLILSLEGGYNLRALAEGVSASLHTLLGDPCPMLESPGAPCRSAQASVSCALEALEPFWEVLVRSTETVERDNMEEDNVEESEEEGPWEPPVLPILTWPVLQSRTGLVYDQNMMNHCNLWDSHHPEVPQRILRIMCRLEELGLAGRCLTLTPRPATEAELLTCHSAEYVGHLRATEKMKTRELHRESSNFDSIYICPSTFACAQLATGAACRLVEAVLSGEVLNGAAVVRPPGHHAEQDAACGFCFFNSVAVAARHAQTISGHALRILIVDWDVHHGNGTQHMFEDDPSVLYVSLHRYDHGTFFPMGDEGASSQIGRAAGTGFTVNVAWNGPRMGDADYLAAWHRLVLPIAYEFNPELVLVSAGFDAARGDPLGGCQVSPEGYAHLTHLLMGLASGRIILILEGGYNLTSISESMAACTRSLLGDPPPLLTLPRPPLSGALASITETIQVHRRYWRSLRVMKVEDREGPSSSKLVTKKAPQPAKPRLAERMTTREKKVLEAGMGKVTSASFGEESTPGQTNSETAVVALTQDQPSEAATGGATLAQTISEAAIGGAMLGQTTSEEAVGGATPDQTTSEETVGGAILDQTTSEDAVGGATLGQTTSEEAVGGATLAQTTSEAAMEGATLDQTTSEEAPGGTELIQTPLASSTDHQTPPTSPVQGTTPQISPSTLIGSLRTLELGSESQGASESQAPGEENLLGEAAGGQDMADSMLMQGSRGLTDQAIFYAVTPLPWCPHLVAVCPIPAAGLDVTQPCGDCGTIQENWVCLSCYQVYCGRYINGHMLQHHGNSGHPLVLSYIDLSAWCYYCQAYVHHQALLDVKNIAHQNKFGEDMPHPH
# procedureText: In vitro histone deacetylase assay, enzymatic HDAC6 (electrophoretic mobility shift assay)
# testConditions: 1 nM HDAC6; 2 μM peptide substrate FAM-RHKK(Ac)—NH2; 25° C.; 12 concentrations; read-out: HDAC6 Activity Range (IC50)
pIC50: −log10 of the molar value.
quantityName: pIC50

> print(dat)
                                   compound  result
1  O=C(NO)c1ccc2c(c1)CC1(CC2)CCN(C(=O)C2CCCCC2)C1 (centres unmarked)  ≥ 7.00

// lookup pIC50 for COCCn1c(CN2CC[C@@]3(CCc4ccc(C(=O)NO)cc4C3)C2=O)nc2ccccc21
≥ 7.00

// lookup pIC50 for O=C(NO)c1ccc2c(c1)C[C@]1(CC2)CCN(Cc2ccccc2C(F)(F)F)C1=O
≥ 7.00

---

# measuredOn: Full length human recombinant HDAC11 (Homo sapiens, UniProt Q96DB2)
# Construct: Full length human recombinant HDAC6 and HDAC11 proteins were expressed in baculoviral system
# Sequence (Q96DB2 1-347): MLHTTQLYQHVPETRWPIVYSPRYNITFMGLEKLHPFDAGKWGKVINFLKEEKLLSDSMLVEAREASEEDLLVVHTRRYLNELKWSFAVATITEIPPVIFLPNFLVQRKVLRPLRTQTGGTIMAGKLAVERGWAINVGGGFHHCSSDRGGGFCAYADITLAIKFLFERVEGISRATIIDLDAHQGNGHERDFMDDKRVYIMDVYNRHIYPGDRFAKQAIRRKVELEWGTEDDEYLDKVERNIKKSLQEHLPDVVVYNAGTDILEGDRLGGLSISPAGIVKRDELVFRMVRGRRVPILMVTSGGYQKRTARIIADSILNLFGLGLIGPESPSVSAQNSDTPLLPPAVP
# procedureText: In vitro histone deacetylase assay, enzymatic HDAC11 (electrophoretic mobility shift assay)
# testConditions: 10 nM HDAC11; 2 μM peptide substrate FAM-RHKK(tri-fluor-Ac)—NH2; 25° C.; 12 concentrations; read-out: HDAC11 Activity Range (IC50)
pIC50: −log10 of the molar value.
quantityName: pIC50

// lookup pIC50 for COc1ccc(C(=O)N2CCC3(CCc4ccc(C(=O)NO)cc4O3)CC2)cc1 [II-1]
< 6.30

// lookup pIC50 for CC(C)n1c(CN2CC[C@@]3(CCc4ccc(C(=O)NO)cc4C3)C2=O)nc2ccccc21 [Compound I-66]
< 6.30

// lookup pIC50 for CCCN1CC[C@]2(CCc3ccc(C(=O)NO)cc3C2)C1=O [Compound I-79]
< 6.30

// lookup pIC50 for O=C(NO)c1ccc2c(c1)C[C@]1(CC2)CCN(Cc2ccc3nonc3c2)C1=O [Compound I-91]
≥ 7.00

// lookup pIC50 for CC#CCN1CC[C@]2(CCc3ccc(C(=O)NO)cc3C2)C1=O [Compound I-83]
< 6.30

// lookup pIC50 for O=C(NO)c1ccc2c(c1)C[C@]1(CC2)CCN(Cc2ccccc2C(F)(F)F)C1=O [Compound I-88]
≥ 7.00

// lookup pIC50 for O=C(NO)c1ccc2c(c1)CC1(CC2)CCN(C(=O)Nc2ccccc2)C1 (stereo not shown) [Compound I-6]
6.30 to 7.00
